Quick reference: pIC50 of the listed items.
# TARGET_OR_TEST_SYSTEM: Pim3 kinase (Homo sapiens (Human))
# ASSAY_SETUP: read-out: Pim3 IC50
pIC50: −log10 of the molar value.

{"MOLECULE": "CCc1ccc(F)c(-c2cccc(C(=O)Nc3cnccc3[C@H]3C[C@@H](N)[C@@H](O)[C@@H](C)C3)n2)c1F [Example 17]", "pIC50": 8.30}
{"MOLECULE": "C[C@@H]1C[C@H](c2ccncc2NC(=O)c2cccc(-c3c(F)cccc3F)n2)C[C@H](N)[C@H]1O (stereo in doubt) [Example 52]", "pIC50": 8.70}
{"MOLECULE": "C[C@H]1CN(c2ccncc2NC(=O)c2nc(-c3c(F)cccc3F)ccc2F)C[C@@H](N)[C@@H]1O [Example 24]", "pIC50": 9.00}
{"MOLECULE": "N[C@H]1CCC[C@@H](c2ccncc2NC(=O)c2nc(-c3cc(O)ccc3F)ccc2F)C1 [Example 34]", "pIC50": 8.22}
{"MOLECULE": "N[C@H]1CCC[C@@H](c2ccncc2NC(=O)c2ccc(F)c([C@H]3CC[C@H](O)CC3)n2)C1 [Example 56]", "pIC50": 6.99}
{"MOLECULE": "C[C@H]1C[C@@H](c2ccncc2NC(=O)c2ccc(F)c(-c3c(F)cccc3F)n2)C[C@@H](N)[C@H]1F [Example 139]", "pIC50": 8.40}
{"MOLECULE": "Cc1ccc(F)c(-c2nc(C(=O)Nc3cnccc3[C@@H]3C[C@H](C)C[C@H](N)C3)ccc2F)c1F [Example 27]", "pIC50": 8.70}

----------
# TARGET_OR_TEST_SYSTEM: Pim1 kinase (Homo sapiens (Human), UniProt P11309)
# Sequence (P11309 whole entry): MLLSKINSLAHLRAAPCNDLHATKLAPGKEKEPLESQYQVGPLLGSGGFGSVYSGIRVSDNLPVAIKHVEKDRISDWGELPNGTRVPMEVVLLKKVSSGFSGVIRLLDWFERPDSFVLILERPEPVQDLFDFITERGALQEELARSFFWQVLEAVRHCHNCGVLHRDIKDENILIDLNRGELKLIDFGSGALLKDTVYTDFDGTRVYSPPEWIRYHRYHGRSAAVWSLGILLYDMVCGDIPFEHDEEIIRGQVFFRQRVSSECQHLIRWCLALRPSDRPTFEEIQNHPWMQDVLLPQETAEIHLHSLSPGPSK
# ASSAY_SETUP: read-out: Pim1 IC50
Quick reference: IC50 of the listed items.

{"MOLECULAR_STRING": "CC1(C)C[C@H](N)C[C@H](c2ccncc2NC(=O)c2ccc(F)c(-c3c(F)cc(O)cc3F)n2)C1", "IC50 [nM]": 1}
{"MOLECULAR_STRING": "Cc1ccc(F)c(-c2cccc(C(=O)Nc3cnccc3[C@@H]3CCC[C@H](N)C3)n2)c1F", "IC50 [nM]": 1}
{"MOLECULAR_STRING": "N[C@H]1CCC[C@@H](c2ccncc2NC(=O)c2ccc(F)c(-c3cccc(F)c3F)n2)C1", "IC50 [nM]": 2}
{"MOLECULAR_STRING": "C[C@@H]1C[C@H](N)C[C@H](c2ccncc2NC(=O)c2cccc(-c3ccc(O)cc3F)n2)C1", "IC50 [nM]": 2}

----------
Quick reference: log10 IC50 of the listed items.
# TARGET_OR_TEST_SYSTEM: Pim1 kinase (Homo sapiens (Human))
# ASSAY_SETUP: read-out: Pim1 IC50
EXPERIMENTAL_ENDPOINT: log10 IC50 (log10 of the value in nM)

{"COMPOUND": "C[C@H]1C[C@@H](c2ccncc2NC(=O)c2nc(-c3c(F)cccc3F)c(F)cc2N)C[C@@H](N)[C@@H]1O (stereo in doubt)", "EXPERIMENTAL_ENDPOINT": "log10 IC50", "REPORTED_MEASUREMENT": 0.30}
{"COMPOUND": "Nc1cc(F)c(-c2c(F)cccc2F)nc1C(=O)Nc1cnccc1[C@@H]1CC[C@H](O)[C@H](N)C1 (stereo in doubt) [Example 131]", "EXPERIMENTAL_ENDPOINT": "log10 IC50", "REPORTED_MEASUREMENT": 0.30}
{"COMPOUND": "N[C@H]1CCC[C@@H](c2ccncc2NC(=O)c2cccc(-c3cc(O)ccc3F)n2)C1", "EXPERIMENTAL_ENDPOINT": "log10 IC50", "REPORTED_MEASUREMENT": 0.00}
{"COMPOUND": "Nc1ccc(-c2c(F)cccc2F)nc1C(=O)Nc1cnccc1C1=C[C@@H](N)[C@@H](O)CC1", "EXPERIMENTAL_ENDPOINT": "log10 IC50", "REPORTED_MEASUREMENT": 0.00}
{"COMPOUND": "C[C@@H]1C[C@H](N)C[C@H](c2ccncc2NC(=O)c2ccc(F)c(-c3cc(F)ccc3F)n2)C1", "EXPERIMENTAL_ENDPOINT": "log10 IC50", "REPORTED_MEASUREMENT": 0.00}
{"COMPOUND": "C[C@H]1C[C@@H](c2ccncc2NC(=O)c2cccc(-c3c(F)cccc3F)n2)C[C@@H](N)[C@H]1O", "EXPERIMENTAL_ENDPOINT": "log10 IC50", "REPORTED_MEASUREMENT": 0.00}
{"COMPOUND": "Nc1ccc(-c2c(F)cccc2F)nc1C(=O)Nc1cnccc1C1=CC(N)C(O)CC1 (centres unmarked)", "EXPERIMENTAL_ENDPOINT": "log10 IC50", "REPORTED_MEASUREMENT": 0.30}
{"COMPOUND": "C[C@H]1CN(c2ccncc2NC(=O)c2cccc(-c3c(F)cccc3F)n2)C[C@@H](O)[C@@H]1O", "EXPERIMENTAL_ENDPOINT": "log10 IC50", "REPORTED_MEASUREMENT": 0.00}
{"COMPOUND": "Nc1cc(F)c(-c2ccncc2F)nc1C(=O)Nc1cnccc1[C@@H]1CCC[C@H](N)C1", "EXPERIMENTAL_ENDPOINT": "log10 IC50", "REPORTED_MEASUREMENT": 0.30}
{"COMPOUND": "C[C@H]1CN(c2ccncc2NC(=O)c2ccc(F)c(-c3cccnc3)n2)C[C@@H](N)[C@@H]1O", "EXPERIMENTAL_ENDPOINT": "log10 IC50", "REPORTED_MEASUREMENT": 0.60}
{"COMPOUND": "N[C@H]1CCC[C@@H](c2ccncc2NC(=O)c2nc(-c3c(F)cccc3F)ccc2F)C1", "EXPERIMENTAL_ENDPOINT": "log10 IC50", "REPORTED_MEASUREMENT": 0.78}
{"COMPOUND": "Cc1ccc(F)c(-c2nc(C(=O)Nc3cnccc3N3C[C@@H](N)[C@H](O)[C@@H](C)C3)ccc2F)c1F", "EXPERIMENTAL_ENDPOINT": "log10 IC50", "REPORTED_MEASUREMENT": 0.00}
{"COMPOUND": "C[C@H]1CN(c2ccncc2NC(=O)c2cccc(-c3ccccc3F)n2)C[C@@H](N)[C@@H]1O", "EXPERIMENTAL_ENDPOINT": "log10 IC50", "REPORTED_MEASUREMENT": 0.30}
{"COMPOUND": "CC1(C)C[C@H](N)C[C@H](c2ccncc2NC(=O)c2ccc(F)c(-c3c(F)cccc3F)n2)C1", "EXPERIMENTAL_ENDPOINT": "log10 IC50", "REPORTED_MEASUREMENT": 0.00}
{"COMPOUND": "Cc1ccc(F)c(-c2nc(C(=O)Nc3cnccc3[C@@H]3CCC[C@H](N)C3)ccc2F)c1F", "EXPERIMENTAL_ENDPOINT": "log10 IC50", "REPORTED_MEASUREMENT": 0.00}
{"COMPOUND": "Cc1ccc(F)c(-c2cccc(C(=O)Nc3cnccc3N3C[C@@H](N)[C@H](O)[C@@H](C)C3)n2)c1F", "EXPERIMENTAL_ENDPOINT": "log10 IC50", "REPORTED_MEASUREMENT": 0.00}
{"COMPOUND": "C[C@H]1C[C@@H](c2ccncc2NC(=O)c2ccc(F)c(-c3cccc(C(F)(F)F)c3F)n2)C[C@@H](N)[C@@H]1O", "EXPERIMENTAL_ENDPOINT": "log10 IC50", "REPORTED_MEASUREMENT": 1.04}
{"COMPOUND": "C[C@H]1CN(c2ccncc2NC(=O)c2nc(-c3c(F)cccc3F)ccc2F)C[C@@H](N)[C@@H]1O", "EXPERIMENTAL_ENDPOINT": "log10 IC50", "REPORTED_MEASUREMENT": 0.00}
{"COMPOUND": "Cc1ccc(F)c(-c2cccc(C(=O)Nc3cnccc3[C@H]3C[C@@H](N)[C@@H](O)[C@@H](C)C3)n2)c1", "EXPERIMENTAL_ENDPOINT": "log10 IC50", "REPORTED_MEASUREMENT": 0.00}
{"COMPOUND": "CCc1ccc(F)c(-c2cccc(C(=O)Nc3cnccc3[C@@H]3C[C@H](C)C[C@H](N)C3)n2)c1F", "EXPERIMENTAL_ENDPOINT": "log10 IC50", "REPORTED_MEASUREMENT": 0.30}
{"COMPOUND": "N[C@H]1CCC[C@@H](c2ccncc2NC(=O)c2cccc(-c3c(F)cc(O)cc3F)n2)C1", "EXPERIMENTAL_ENDPOINT": "log10 IC50", "REPORTED_MEASUREMENT": 0.00}
{"COMPOUND": "N[C@H]1CCC[C@@H](c2ccncc2NC(=O)c2ccc(F)c(-c3ccc(F)cc3F)n2)C1", "EXPERIMENTAL_ENDPOINT": "log10 IC50", "REPORTED_MEASUREMENT": 0.48}
{"COMPOUND": "CCc1ccc(F)c(-c2cccc(C(=O)Nc3cnccc3[C@@H]3CCC[C@H](N)C3)n2)c1F", "EXPERIMENTAL_ENDPOINT": "log10 IC50", "REPORTED_MEASUREMENT": 0.48}
{"COMPOUND": "Cc1ccc(F)c(-c2nc(C(=O)Nc3cnccc3[C@H]3C[C@@H](N)CC(C)(C)C3)ccc2F)c1F", "EXPERIMENTAL_ENDPOINT": "log10 IC50", "REPORTED_MEASUREMENT": 0.00}
{"COMPOUND": "COc1ccc(F)c(-c2nc(C(=O)Nc3cnccc3[C@@H]3C[C@H](C)C[C@H](N)C3)ccc2F)c1", "EXPERIMENTAL_ENDPOINT": "log10 IC50", "REPORTED_MEASUREMENT": 0.00}
{"COMPOUND": "C[C@@H]1C[C@H](N)C[C@H](c2ccncc2NC(=O)c2cccc(-c3c(F)cccc3F)n2)C1", "EXPERIMENTAL_ENDPOINT": "log10 IC50", "REPORTED_MEASUREMENT": 0.00}
{"COMPOUND": "Cc1ccc(F)c(-c2nc(C(=O)Nc3cnccc3[C@@H]3C[C@H](C)C[C@H](N)C3)ccc2F)c1F", "EXPERIMENTAL_ENDPOINT": "log10 IC50", "REPORTED_MEASUREMENT": 0.00}
{"COMPOUND": "Cc1ccc(F)c(-c2cccc(C(=O)Nc3cnccc3[C@H]3C[C@@H](N)C[C@@H](C(F)(F)F)C3)n2)c1", "EXPERIMENTAL_ENDPOINT": "log10 IC50", "REPORTED_MEASUREMENT": 0.00}
{"COMPOUND": "CC1(C)C[C@H](N)C[C@H](c2ccncc2NC(=O)c2ccc(F)c(-c3ccc(O)cc3F)n2)C1", "EXPERIMENTAL_ENDPOINT": "log10 IC50", "REPORTED_MEASUREMENT": 0.00}
